system: hepatitis B surface antigen; experiment: Antibody response to hepatitis B surface antigen with octadecyl amino acid immunoadjuvants, radioimmunoassay of sera; type: in vivo, BALB/c mice; details: day 14; 50 ng HBsAg i.m. day 1, boost 35 ng day 21; 100 µg octadecyl amino acid
Where a name gives a salt, the structure may show the parent alone.
Quick rule for you: Anti-HBsAg antibody concentration under 40 ng/mL gets fulfilled, anything else gets not fulfilled.

Answered examples (3):
>  <Compound>
CCCCCCCCCCCCCCCCCCOC(=O)C(N)Cc1ccc(O)cc1 (stereo not drawn) [Octadecyl Tyrosine, octadecyl tyrosine hydrochloride]

>  <Classification>
not fulfilled

$$$$
>  <Compound>
CCCCCCCCCCCCCCCCCCOC(=O)CCN

>  <Classification>
not fulfilled

$$$$
>  <Compound>
CCCCCCCCCCCCCCCCCCOC(=O)C1CCCN1 (stereo not drawn)

>  <Classification>
fulfilled

$$$$

Strictly below 40 ng/mL: is that where Anti-HBsAg antibody concentration of CCCCCCCCCCCCCCCCCCOC(=O)C(N)CCCCN (stereo not drawn) sits?
not fulfilled

Strictly below 40 ng/mL: is that where Anti-HBsAg antibody concentration of CCCCCCCCCCCCCCCCCCOC(=O)CN sits?
fulfilled

Strictly below 40 ng/mL: is that where Anti-HBsAg antibody concentration of CCCCCCCCCCCCCCCCCCOC(=O)C(N)CC(C)C (stereo not drawn) sits?
not fulfilled
